Reported values of self-cleavage for individual entries
B1: HDV Ribozyme (parent)
chain: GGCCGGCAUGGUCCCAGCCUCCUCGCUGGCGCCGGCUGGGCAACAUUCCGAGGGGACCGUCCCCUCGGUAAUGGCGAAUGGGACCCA

Variants of: B1
PROTOCOL SUMMARY: self-cleavage, relative activity (ratio to wild type); higher = more cleavage; co-transcriptional
When you answer, write just the number.

Known self-cleavage results, listed for orientation:
* G2A G76A | 0.0391
* G2A G54U | 0.127
* C32G A71C | 0
* C41U A42C | 0.519
* C36G C49U | 0.0811

Enquiry: I have this variant here, C33U G38U , and I need its recorded self-cleavage.
Return: 0.0978

Enquiry: Do the same for G17U G34C please
Return: 0.0692

Enquiry: Do the same for G10C C75G please
Return: 0.115

Enquiry: Do the same for C19A G81C please
Return: 0.0272

Enquiry: Do the same for C44G G76U please
Return: 1.03

Enquiry: Do the same for C33G G39U please
Return: 0.0692

These data points were gathered from the RNAGym collection of RNA variant scans (doi:10.7554/elife.80360).
